molecular target: T1, hRSV FTM- protein (membrane anchorless form of the fusion protein, 70 kDa) (human respiratory syncytial virus, UniProt P12568 26-524); assay: SPR (Biacore T100), FTM- amine-coupled on CM5 chip, 1:1 Langmuir fit
T1 construct: extracellular domain
MEASURED_ENDPOINT: kon (M⁻¹ s⁻¹)
Answers are plain numbers, in M⁻¹ s⁻¹.

Some binders with recorded kon:
| BINDER | RESULT_NUMBER |
| --- | --- |
| LG191E4 (VHH) VHH: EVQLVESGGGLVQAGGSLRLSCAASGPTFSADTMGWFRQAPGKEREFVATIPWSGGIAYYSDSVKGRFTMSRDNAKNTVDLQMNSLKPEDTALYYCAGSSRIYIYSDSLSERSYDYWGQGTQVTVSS | 298000 |
| LG192C10 (VHH) VHH: EVQLVESGGGLVQAGGSLRLSCAASEGYFRNYMVGWFRQAPGGERMFVAAISDTAYYADSVKGRFTISRDNAKNTVYLPMNSLKPEDTAVYYCAAAPKSWGTWPLVADTRSYHFWGQGTQVTVSS | 175000 |
| LG192H1 (VHH) VHH: EVQLVESGGGLVQAGGSLRLSCAASGIIFSTNHMGWYRRAPGKQRELVGTINRGDSPYYADSVKGRFTISRDNAKNMVYLQMNSLKPEDTAVYYCNAGYIYWGQGTQVTVSS | 1.65e+06 |

Inquiry: Can you look up the measured kon of LG192C4 (VHH) VHH: EVQLVESGGGLVQAGGSLRLSCEASGRTFSSYAMVGWFRQAPGKEREFVAAVTRWSGARTVYADSVKGRFTISRDNAENTVYLQMNSLKPEDTAVYTCAADSTNRNSGAVYYSWAYDYWGQGTQVTVSS for me?
Reply text: 1.13e+06
